# subject.of.test: Bromodomain-containing protein 1 (Homo sapiens, UniProt O95696)
# Sequence (O95696 whole entry): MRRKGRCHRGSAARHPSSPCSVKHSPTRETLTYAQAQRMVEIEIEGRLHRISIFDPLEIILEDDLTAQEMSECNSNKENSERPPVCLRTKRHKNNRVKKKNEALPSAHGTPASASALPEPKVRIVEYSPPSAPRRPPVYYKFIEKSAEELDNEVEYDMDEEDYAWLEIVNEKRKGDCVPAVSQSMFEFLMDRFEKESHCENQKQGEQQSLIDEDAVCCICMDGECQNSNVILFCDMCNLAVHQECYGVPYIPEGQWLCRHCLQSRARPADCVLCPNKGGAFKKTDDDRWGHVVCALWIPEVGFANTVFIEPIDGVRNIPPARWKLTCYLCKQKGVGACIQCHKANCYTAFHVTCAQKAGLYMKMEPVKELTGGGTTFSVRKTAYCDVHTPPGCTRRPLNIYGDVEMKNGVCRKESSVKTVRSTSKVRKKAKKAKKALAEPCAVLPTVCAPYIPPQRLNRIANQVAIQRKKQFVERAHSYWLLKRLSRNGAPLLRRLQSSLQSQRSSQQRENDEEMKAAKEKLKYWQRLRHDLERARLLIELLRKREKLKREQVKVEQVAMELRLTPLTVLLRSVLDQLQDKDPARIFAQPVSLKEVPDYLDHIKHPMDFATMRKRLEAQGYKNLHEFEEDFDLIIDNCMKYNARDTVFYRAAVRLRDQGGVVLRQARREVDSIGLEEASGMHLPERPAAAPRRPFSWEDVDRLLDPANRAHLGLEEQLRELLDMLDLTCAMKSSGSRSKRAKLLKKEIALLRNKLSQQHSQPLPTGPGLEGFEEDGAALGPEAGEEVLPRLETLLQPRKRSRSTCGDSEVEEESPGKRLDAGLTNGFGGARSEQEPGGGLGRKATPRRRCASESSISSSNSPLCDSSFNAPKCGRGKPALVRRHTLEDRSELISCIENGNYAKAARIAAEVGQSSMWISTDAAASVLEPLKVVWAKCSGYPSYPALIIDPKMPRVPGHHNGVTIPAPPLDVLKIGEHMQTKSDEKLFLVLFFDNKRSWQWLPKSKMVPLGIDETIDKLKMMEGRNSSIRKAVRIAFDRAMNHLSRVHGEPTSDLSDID
# procedure.text: Inhibition of BRPF2 BRD1 (unknown origin) by Alpha Screen assay
quantity.kind: IC50 (µM)

# count of solved cases: 5
CC(C)c1ccc(S(=O)(=O)Nc2ccc3c(c2)n(C)c(=O)n3C)cc1 = 4.3
Cn1c(=O)n(C)c2cc(NS(=O)(=O)c3ccc4c(c3)CCCC4)ccc21 = 2.05
COc1ccc(S(=O)(=O)Nc2cc3c(cc2Oc2ccccc2)n(C)c(=O)n3C)cc1OC = 1.21
COc1ccc(Oc2cc3c(cc2NS(=O)(=O)c2ccccc2)n(C)c(=O)n3C)cc1 = 2.77
COc1ccc(Oc2cc3c(cc2NS(=O)(=O)c2ccc(OC)cc2)n(C)c(=O)n3C)cc1 = 3.58

(1) COc1ccc(S(=O)(=O)Nc2cc3c(cc2Oc2ccccc2)n(C)c(=O)n3C)cc1
(2) Cc1ccc(S(=O)(=O)Nc2ccc3c(c2)n(C)c(=O)n3C)cc1F
Of 1 and 2 , whose reported IC50 is numerically smaller? Indicate your choice by writing its label. 1

(A) Cc1ccc(S(=O)(=O)Nc2cc3c(cc2Oc2ccccc2)n(C)c(=O)n3C)cc1F
(B) COc1cccc(S(=O)(=O)Nc2cc3c(cc2Oc2ccccc2)n(C)c(=O)n3C)c1
Hey, between A and B which has a smaller measured IC50? Identify your pick by its label. B

###

# subject.of.test: Bromodomain-containing protein 1 (Homo sapiens, UniProt O95696)
# procedure.text: Inhibition of BRPF2 BRD1 (unknown origin) by Alpha Screen assay
pIC50: −log10 of the molar value.
quantity.kind: pIC50

Cn1c(=O)n(C)c2cc(NS(=O)(=O)c3ccc4c(c3)CCC4)ccc21 = 5.77
COc1ccc(Oc2cc3c(cc2NS(=O)(=O)c2ccc(OC)c(OC)c2)n(C)c(=O)n3C)cc1 = 5.76
Cc1cc(Cl)ccc1S(=O)(=O)Nc1cc2c(cc1Oc1ccccc1)n(C)c(=O)n2C = 5.62
Cc1ccc(F)cc1S(=O)(=O)Nc1cc2c(cc1Oc1ccccc1)n(C)c(=O)n2C = 5.62

###

# subject.of.test: Transcription intermediary factor 1-alpha (Homo sapiens, UniProt O15164)
# Sequence (O15164 whole entry): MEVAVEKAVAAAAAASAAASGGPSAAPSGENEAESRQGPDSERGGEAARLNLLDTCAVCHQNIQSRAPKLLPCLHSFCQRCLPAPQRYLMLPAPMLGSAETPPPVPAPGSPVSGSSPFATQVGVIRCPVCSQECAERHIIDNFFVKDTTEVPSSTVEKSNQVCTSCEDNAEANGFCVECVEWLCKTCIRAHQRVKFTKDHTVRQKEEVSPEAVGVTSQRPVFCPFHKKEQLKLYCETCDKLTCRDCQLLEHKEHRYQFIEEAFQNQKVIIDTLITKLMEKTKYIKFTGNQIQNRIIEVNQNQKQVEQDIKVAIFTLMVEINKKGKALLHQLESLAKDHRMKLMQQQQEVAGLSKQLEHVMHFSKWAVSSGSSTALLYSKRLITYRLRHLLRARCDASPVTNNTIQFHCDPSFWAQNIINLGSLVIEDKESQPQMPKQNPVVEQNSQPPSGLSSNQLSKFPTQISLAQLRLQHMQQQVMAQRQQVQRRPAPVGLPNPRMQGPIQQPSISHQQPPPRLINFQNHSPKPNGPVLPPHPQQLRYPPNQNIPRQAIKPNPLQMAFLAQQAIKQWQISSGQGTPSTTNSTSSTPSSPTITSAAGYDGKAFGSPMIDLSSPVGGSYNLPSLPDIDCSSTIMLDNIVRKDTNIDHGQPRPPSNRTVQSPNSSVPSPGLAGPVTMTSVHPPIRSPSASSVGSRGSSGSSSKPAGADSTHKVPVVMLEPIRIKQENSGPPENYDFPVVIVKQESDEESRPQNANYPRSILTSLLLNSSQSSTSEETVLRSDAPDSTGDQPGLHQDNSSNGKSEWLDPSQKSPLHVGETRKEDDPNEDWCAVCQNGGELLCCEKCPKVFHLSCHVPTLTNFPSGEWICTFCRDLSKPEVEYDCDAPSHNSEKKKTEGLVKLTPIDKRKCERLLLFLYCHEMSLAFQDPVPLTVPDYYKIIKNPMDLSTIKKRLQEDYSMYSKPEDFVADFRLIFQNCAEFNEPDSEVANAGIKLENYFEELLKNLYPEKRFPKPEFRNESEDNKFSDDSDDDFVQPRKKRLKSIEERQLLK
# procedure.text: Inhibition of N-terminal His6-SUMO-1-tagged recombinant human TRIM24 bromodomain expressed in Escherichia coli BL21(DE3)-R3-pRARE2 cells by Alpha Screen assay
pIC50: −log10 of the molar value.
quantity.kind: pIC50

(P) COc1ccc(S(=O)(=O)Nc2cc3c(cc2Oc2ccccc2)n(C)c(=O)n3C)cc1
(Q) Cc1ccccc1S(=O)(=O)Nc1cc2c(cc1Oc1ccccc1)n(C)c(=O)n2C
(R) COc1ccc(Oc2cc3c(cc2NS(=O)(=O)c2ccc(OC)c(OC)c2)n(C)c(=O)n3C)cc1
// ranking: key=pIC50, reverse=True Returns: the labels arranged in the requested order. R, P, Q
(R: 6.37, P: 6.13, Q: 5.58)

(a) COc1ccc(S(=O)(=O)Nc2cc3c(cc2Oc2ccccc2)n(C)c(=O)n3C)cc1OC
(b) COc1cccc(S(=O)(=O)Nc2cc3c(cc2Oc2ccccc2)n(C)c(=O)n3C)c1
// compare measured pIC50 between a and b ; output the lower one Identify your pick by its label. b
(b: 5.62, a: 6.32)

(a) COc1ccc(Oc2cc3c(cc2NS(=O)(=O)c2ccccc2)n(C)c(=O)n3C)cc1
(b) Cc1ccc(F)cc1S(=O)(=O)Nc1cc2c(cc1Oc1ccccc1)n(C)c(=O)n2C
Which one would you say has the larger pIC50 value: a , or b ? Answer by stating the label of the chosen item. a
(a: 6.14, b: 5.47)
